Molecular target: T1, recombinant BACE1 (BACE1 extracellular domain, R&D Systems Cat#931-AS) (UniProt P56817 22-457)
T1 construct: extracellular domain; also called BACE1 extracellular domain protein
T1 sequence (P56817 22-457): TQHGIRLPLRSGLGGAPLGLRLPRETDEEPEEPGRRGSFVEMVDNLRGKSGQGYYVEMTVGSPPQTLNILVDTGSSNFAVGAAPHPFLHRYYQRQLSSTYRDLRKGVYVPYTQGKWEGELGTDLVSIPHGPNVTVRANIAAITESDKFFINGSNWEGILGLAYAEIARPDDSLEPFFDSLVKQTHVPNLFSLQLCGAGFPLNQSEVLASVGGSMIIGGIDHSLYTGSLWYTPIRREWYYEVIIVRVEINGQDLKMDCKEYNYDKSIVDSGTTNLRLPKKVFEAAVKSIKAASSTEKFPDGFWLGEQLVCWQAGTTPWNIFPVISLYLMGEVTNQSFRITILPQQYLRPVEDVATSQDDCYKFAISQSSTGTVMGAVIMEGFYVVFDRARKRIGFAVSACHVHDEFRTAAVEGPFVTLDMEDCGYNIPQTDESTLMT
Assay: SPR Biacore
Readout Label: Kd (µM)
Field: numeric (µM). Do not append units.

Query string: Entry hu2H8v4 (antibody, V domains shown, humanized; also called hu2H8_HC5 + hu2H8_LC1) VH: QVQLVQSGAEVKKPGASVKVSCKASGYTFTNFWIHWVRQAPGQGLEWMGMIDPSDSYTKYNQKFKARATLTRDTSTSTVYMELSSLRSEDTAVYYCARSGVAFPYWGQGTLVTVSS VL: DIQMTQSPSSLSASVGDRVTITCKASQDVGRNVAWYQQKPGKAPKLLIYSASHRYSGVPSRFSGSGSGTDFTLTISSLQPEDFATYYCQQYNSYPYTFGQGTKVEIK needs its Kd filled in; supply it.
Result string: 0.169

Query string: Given the binder hu2H8v28 (antibody, V domains shown, humanized; also called hu2H8_HC5 + hu2H8_LC5) VH: QVQLVQSGAEVKKPGASVKVSCKASGYTFTNFWIHWVRQAPGQGLEWMGMIDPSDSYTKYNQKFKARATLTRDTSTSTVYMELSSLRSEDTAVYYCARSGVAFPYWGQGTLVTVSS VL: DIQMTQSPSSLSASVGDRVTITCKASQDVGRNVAWYQQKPGKSPKSLIYSASHRYSGVPSRFSGSGSGTDFTLTISSLQPEDFATYFCQQYNSYPYTFGQGTKVEIK , write its reported Kd.
Result string: 0.0195
